# SYSTEM_UNDER_TEST: Carboanhydrase IX (Homo sapiens, UniProt Q16790 38-459)
# TEST_NAME: cell-based or functional assay
READOUT_TYPE: EC50 (nM) HT29
Field: numeric (nM). Do not append units.

Some solved cases for reference:
1) Example 288 (antibody, human IgG1, kappa, V domains shown, linker-toxophore on cysteine S) VH: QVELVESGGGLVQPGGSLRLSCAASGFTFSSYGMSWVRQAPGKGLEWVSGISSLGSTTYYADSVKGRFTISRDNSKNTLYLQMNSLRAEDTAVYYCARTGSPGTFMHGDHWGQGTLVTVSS VL: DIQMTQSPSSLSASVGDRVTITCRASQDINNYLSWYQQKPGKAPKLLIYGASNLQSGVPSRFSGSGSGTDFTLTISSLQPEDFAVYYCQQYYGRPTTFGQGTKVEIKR ... 39
2) Example 291 (antibody, human IgG1, kappa, V domains shown, linker-toxophore on cysteine S) VH: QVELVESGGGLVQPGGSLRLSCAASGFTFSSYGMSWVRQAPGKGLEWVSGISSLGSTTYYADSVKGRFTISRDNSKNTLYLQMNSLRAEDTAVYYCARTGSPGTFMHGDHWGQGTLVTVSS VL: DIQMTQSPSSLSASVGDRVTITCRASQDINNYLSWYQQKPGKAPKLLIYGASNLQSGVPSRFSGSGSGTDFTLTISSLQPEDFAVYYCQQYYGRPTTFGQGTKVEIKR ... 27

// below: EC50 (nM) HT29 requested for another binder
Form field EC50 (nM) HT29, entry Example 286 (antibody, human IgG1, kappa, V domains shown, linker-toxophore on cysteine S) VH: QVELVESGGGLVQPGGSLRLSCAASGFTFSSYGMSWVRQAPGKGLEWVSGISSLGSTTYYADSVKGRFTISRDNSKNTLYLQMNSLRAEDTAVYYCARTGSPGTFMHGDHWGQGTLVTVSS VL: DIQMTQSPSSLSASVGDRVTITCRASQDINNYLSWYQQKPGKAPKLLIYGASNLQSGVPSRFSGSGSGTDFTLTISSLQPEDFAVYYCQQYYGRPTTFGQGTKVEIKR : 0.03
